# Tested on: Hepatotoxicity
# protocol.notes: FDA HLAED, liver enzyme composite activity
# measurement.setup: human
The following compounds are listed with their measured Composite Activity - Active values.
property: Composite Activity - Active

[
  {
    "compound": "OC[C@H]1O[C@@H](n2cnc3c2NC=NC[C@H]3O)C[C@@H]1O [PENTOSTATIN]",
    "test.value": 0
  },
  {
    "compound": "COc1cc2nc(N3CCN(C(=O)C4COc5ccccc5O4)CC3)nc(N)c2cc1OC (stereo unspecified) [DOXAZOSIN]",
    "test.value": 0
  },
  {
    "compound": "O=c1[nH]c(=O)n([C@H]2C[C@H](O)[C@@H](CO)O2)cc1F [FLOXURIDINE]",
    "test.value": 0
  },
  {
    "compound": "C[C@](N)(Cc1ccc(O)c(O)c1)C(=O)O [METHYLDOPA]",
    "test.value": 0
  },
  {
    "compound": "CC(C)C(=O)Nc1ccc([N+](=O)[O-])c(C(F)(F)F)c1 [FLUTAMIDE]",
    "test.value": 5
  },
  {
    "compound": "CC(=O)OCC(=O)[C@@]1(OC(=O)C(C)C)[C@@H](C)C[C@H]2[C@@H]3CCC4=CC(=O)C=C[C@]4(C)[C@@]3(F)[C@@H](O)C[C@@]21C [BETAMETHASONE ACIBUTATE]",
    "test.value": 0
  },
  {
    "compound": "Cc1cc(CC(=O)O)n(C)c1C(=O)c1ccc(Cl)cc1 [ZOMEPIRAC]",
    "test.value": 0
  },
  {
    "compound": "CCC(=O)OCC(=O)[C@@]1(OC(=O)CC)[C@@H](C)C[C@H]2[C@@H]3CCC4=CC(=O)C=C[C@]4(C)[C@@]3(F)[C@@H](O)C[C@@]21C [BETAMETHASONE DIPROPIONATE]",
    "test.value": 0
  },
  {
    "compound": "CC(=O)O[C@]1(C(C)=O)CC[C@H]2[C@@H]3C[C@H](C)C4=CC(=O)CC[C@]4(C)[C@H]3CC[C@@]21C [MEDROXYPROGESTERONE ACETATE]",
    "test.value": 0
  },
  {
    "compound": "Nc1ccn([C@@H]2O[C@H](CO)[C@@H](O)C2(F)F)c(=O)n1 [GEMCITABINE]",
    "test.value": 0
  },
  {
    "compound": "CCc1cccc2c3c([nH]c12)C(CC)(CC(=O)O)OCC3 (stereo unspecified) [ETODOLAC]",
    "test.value": 0
  },
  {
    "compound": "COc1cc(CC2c3c(cc(OC)c(OC)c3OC)CC[N+]2(C)CCCOC(=O)CCC(=O)OCCC[N+]2(C)CCc3cc(OC)c(OC)c(OC)c3C2Cc2cc(OC)c(OC)c(OC)c2)cc(OC)c1OC.[Cl-].[Cl-] (stereo unspecified) [DOXACURIUM CHLORIDE]",
    "test.value": 0
  },
  {
    "compound": "Cc1cn([C@H]2C[C@H](N=[N+]=[N-])[C@@H](CO)O2)c(=O)[nH]c1=O [ZIDOVUDINE]",
    "test.value": 4
  },
  {
    "compound": "N[C@@H](C(=O)N[C@@H]1C(=O)N2C(C(=O)O)=C(Cl)CS[C@H]12)c1ccccc1 [CEFACLOR ANHYDROUS]",
    "test.value": 1
  },
  {
    "compound": "COCC(=O)Nc1c(I)c(C(=O)NCC(O)CO)c(I)c(C(=O)N(C)CC(O)CO)c1I (stereo unspecified) [IOPROMIDE]",
    "test.value": 0
  },
  {
    "compound": "CCOC(=O)c1ncn2c1CN(C)C(=O)c1cc(F)ccc1-2 [FLUMAZENIL]",
    "test.value": 0
  },
  {
    "compound": "OC(c1cc(C(F)(F)F)nc2c(C(F)(F)F)cccc12)C1CCCCN1 (stereo unspecified) [MEFLOQUINE]",
    "test.value": 3
  },
  {
    "compound": "CC[N+](C)(C)Cc1ccccc1Br.Cc1ccc(S(=O)(=O)[O-])cc1 [BRETYLIUM TOSYLATE]",
    "test.value": 0
  },
  {
    "compound": "CCOC(=O)/C=C(C)/C=C/C=C(C)/C=C/c1c(C)cc(OC)c(C)c1C [ETRETINATE]",
    "test.value": 2
  },
  {
    "compound": "CCC(=O)Oc1ccc2c(c1)CC[C@@H]1[C@@H]2CC[C@]2(C)[C@@H](OC(=O)CC)CC[C@@H]12 [ESTRADIOL DIPROPIONATE]",
    "test.value": 0
  },
  {
    "compound": "CN(N=O)C(=O)N[C@@H](C=O)[C@@H](O)[C@H](O)[C@H](O)CO [STREPTOZOCIN]",
    "test.value": 0
  },
  {
    "compound": "CCN(CC)CCOc1ccc(/C(=C(/Cl)c2ccccc2)c2ccccc2)cc1 [ENCLOMIPHENE]",
    "test.value": 3
  },
  {
    "compound": "CCCN(CCC)S(=O)(=O)c1ccc(C(=O)O)cc1 [PROBENECID]",
    "test.value": 0
  },
  {
    "compound": "COc1cccc2c1C(=O)c1c(O)c3c(c(O)c1C2=O)C[C@@](O)(C(C)=O)C[C@@H]3O[C@H]1C[C@H](N)[C@H](O)[C@H](C)O1 [DAUNORUBICIN]",
    "test.value": 0
  },
  {
    "compound": "CO/N=C(\\C(=O)N[C@@H]1C(=O)N2C(C(=O)[O-])=C(C[N+]3(C)CCCC3)CS[C@H]12)c1csc(N)n1",
    "test.value": 1
  },
  {
    "compound": "N=C(N)NC(=O)Cc1c(Cl)cccc1Cl [GUANFACINE]",
    "test.value": 0
  },
  {
    "compound": "C[C@@H](O)[C@H]1C(=O)N2C(C(=O)O)=C(S[C@@H]3CN[C@H](C(=O)N(C)C)C3)[C@H](C)[C@H]12 [MEROPENEM]",
    "test.value": 2
  },
  {
    "compound": "Clc1ccc(COC(Cn2ccnc2)c2ccc(Cl)cc2Cl)cc1 (stereo unspecified) [ECONAZOLE]",
    "test.value": 0
  },
  {
    "compound": "CC(CCc1ccccc1)NCC(O)c1ccc(O)c(C(N)=O)c1 (stereo unspecified) [LABETALOL]",
    "test.value": 0
  },
  {
    "compound": "CCC1(c2ccc(N)cc2)CCC(=O)NC1=O (stereo unspecified) [AMINOGLUTETHIMIDE]",
    "test.value": 0
  },
  {
    "compound": "COC(=O)C1=C(C)NC(C)=C(C(=O)OC)C1c1ccccc1[N+](=O)[O-] [NIFEDIPINE]",
    "test.value": 0
  }
]
